Recorded measurements of inhibition, one per entry
Test system: Saccharomyces cerevisiae
Assay: Inhibition of Saccharomyces cerevisiae alpha-glucosidase using p-nitrophenyl alpha-D-glucoside as substrate at 100 uM preincubated for 0.5 hrs followed by substrate addition measured after 1 hr by colorimetric method relative to control
Just the number in %, nothing appended.

Some solved cases for reference:
Compound	inhibition / %
CC(C)=CCC/C(C)=C\CC1(C/C=C(\C)CCC=C(C)C)C(=O)C(O)=Cc2oc3cc(O)cc(O)c3c(=O)c21 (stereo unspecified)	75.8
COc1c(O)cc2oc3cc(O)c(CC=C(C)C)c(O)c3c(=O)c2c1CC=C(C)C	72
COc1c(O)cc2oc3cc4c(c(O)c3c(=O)c2c1C/C=C(\C)CCC=C(C)C)C=CC(C)(C)O4	71.7

Asked: What does the record list as inhibition for `COc1cc2oc3cc(O)c4c(c3c(=O)c2c(O)c1CC=C(C)C)C=CC(C)(C)O4` ?
Given back: 50.8

Asked: Need inhibition, item CC(C)=CCC/C(C)=C/CC1(CC=C(C)C)C(=O)C(O)=Cc2oc3cc(O)cc(O)c3c(=O)c21 (stereo unspecified)
Given back: 66.7

###

Tested on: Salmonella typhimurium
Assay: Antibacterial activity against Salmonella typhimurium TISTR 292 by 2-fold serial dilution method
Format: functional, Salmonella enterica subsp. enterica serovar Typhimurium
Conditions: Salmonella enterica
Experimental readout: MIC

Molecule	MIC
CC(C)=CCC/C(C)=C\CC1(CC=C(C)C)C(=O)C(O)=Cc2oc3cc(O)cc(O)c3c(=O)c21 (centres undefined) [GARCINIANONE B]	64 µg/mL
COc1cc2oc3cc(OC)c(OC)c(CC=C(C)C)c3c(=O)c2c(O)c1CC=C(C)C	128 µg/mL
COc1c(O)cc2oc3cc4c(c(O)c3c(=O)c2c1C/C=C(\C)CCC=C(C)C)C=CC(C)(C)O4	128 µg/mL

Asked: Endpoint output: MIC of `COc1cc2oc3cc(OC)c(CC=C(C)C)c(O)c3c(=O)c2c(CC=C(C)C)c1O` . Value?
Given back: 128 µg/mL

###

Test system: Saccharomyces cerevisiae
Test: Inhibition of Saccharomyces cerevisiae alpha-glucosidase using p-nitrophenyl alpha-D-glucoside as substrate at 100 uM preincubated for 0.5 hrs followed by substrate addition measured after 1 hr by colorimetric method relative to control
inhibition values, listed per item
Unit % implied. Number only.

Answered cases to consult:
Molecule	inhibition / %
COc1c(O)cc2oc3cc(O)cc(O)c3c(=O)c2c1C/C=C(\C)CCC=C(C)C [RUBRAXANTHONE]	71.2
CC(C)=CCC/C(C)=C/CC1(C/C=C(\C)CCC=C(C)C)C(=O)C(O)=Cc2oc3cc(O)cc(O)c3c(=O)c21 (stereo unspecified)	62.9
COc1cc2oc3cc(O)c(OC)c(CC=C(C)C)c3c(=O)c2c(O)c1CC=C(C)C	73.1
COc1cc2oc3cc(OC)c(OC)c(CC=C(C)C)c3c(=O)c2c(O)c1CC=C(C)C	53.8

Asked: Query (molecule): CC(C)=CCC/C(C)=C\CC1(CC=C(C)C)C(=O)C(O)=Cc2oc3cc(O)cc(O)c3c(=O)c21 (stereo unspecified) [GARCINIANONE B] ; field requested: inhibition
Given back: 69.1

Asked: // query inhibition value for entry `COc1cc2oc3cc(OC)c(CC=C(C)C)c(O)c3c(=O)c2c(CC=C(C)C)c1O`
Given back: 56.4
